# experimental_target: SARS-CoV-2 Spike on pseudotyped virus (PsV) (SARS-CoV-2, UniProt P0DTC2 14-1273)
# assay_remarks: cell-based or functional assay
Readings of Median IC50, SARS-CoV-2 PsV neutralization for the listed binders

The reported value for mAb 128 (antibody, V domains shown) VH: QVQLVQSGAEVKKPGASVKVSCKASGYTFTHYYMHWVRQAPGQGLEWMGIINPSSSSASYSQKFQGRVTMTRDTSTSTVYMELSSLRSEDTAVYYCARDGRYGSGSYPFDYWGQGTLVTVSS VL: DIQMTQSPSSLSASVGDRVTITCRASQNISRYLNWYQQKPGKAPKLLIYDASNLETGVPSRFSGSGSGTDFTLTISSLQPEDFATYYCQQANGFPPTFGQGTKLEIKR in terms of Median IC50, SARS-CoV-2 PsV neutralization is > 50 µg/mL

Continuing:
// Median IC50, SARS-CoV-2 PsV neutralization lookup, binder = mAb 52 (antibody, V domains shown) VH: QVQLVQSGAEVKKPGSSVKVSCKASGYTFTSYGISWVRQAPGQGLEWMGGIIPMFGTTNYAQKFQGRVTITADKSTSTAYMELSSLRSEDTAVYYCARDRGDTIDYWGQGTLVTVSS VL: DIQMTQSPSSLSASVGDRVTITCRASQGISNNLNWYQQKPGKAPKLLIYAASSLESGVPSRFSGSGSGTDFTLTISSLQPEDFATYYCQQGNGFPLTFGPGTKVDIKR , result: 0.61 µg/mL

Input mAb 56 (antibody, V domains shown) VH: QVQLVQSGAEVKKPGASVKVSCKASGYTFTSYGISWVRQAPGQGLEWMGWISAYNGNTNYAQKLQGRVTMTRDTSTSTVYMELSSLRSEDTAVYYCARDIGPIDYWGQGTLVTVSS VL: DIQMTQSPSSLSASVGDRVTITCRASQGISSYLAWYQQKPGKAPKLLIYDASNLQSGVPSRFSGSGSGTDFTLTISSLQPEDFATYYCQQANSFPSTFGQGTKVEIKR . Output Median IC50, SARS-CoV-2 PsV neutralization: > 50 µg/mL

Notebook: mAb 349 (antibody, V domains shown) VH: EVQLLESGGGLVQPGGSLRLSCAASGFTFSNYGMHWVRQAPGKGLEWVSGISSAGSITNYADSVKGRFTISRDNSKNTLYLQMNSLRAEDTAVYYCAGNHAGTTVTSEYFQHWGQGTLVTVSS VL: DIQMTQSPSSLSASVGDRVTITCRASQSISSWLAWYQQKPGKAPKLLIYDTSNLETGVPSRFSGSGSGTDFTLTISSLQPEDFATYYCQQSYTTPWTFGQGTRLEIKR , Median IC50, SARS-CoV-2 PsV neutralization read as > 50 µg/mL
